Entry source: ChEMBL document CHEMBL1129532

study_target: PC-3 cells (Homo sapiens)
procedure_text: Inhibition of human PC-3 prostate cancer cell line proliferation
Entries and their measured IC50 follow.

CCOP(=O)(O)CC(=O)NOC/C=C(\C)CC/C=C(\C)CC/C=C(\C)CCC=C(C)C = 35.1 µM

Now, please, on to the next compound.
Please look up its IC50: CC(C)=CCC/C(C)=C/CC/C(C)=C/CC/C(C)=C/COC(=O)NS(N)(=O)=O
22.2 µM
